system: Prevotella melaninogenica; test: Antibacterial activity against Prevotella melaninogenica 25845 by broth dilution method; format: functional
assay.readout: MIC (µg/mL)
Answers are plain numbers, in µg/mL.

Example entries begin here.
compound: C=C1CC[C@@H]2[C@H]([C@H]3[C@H]1CC[C@]3(C)[C@@H](CC(C)C)c1c(O)c(C=O)c(O)c(C=O)c1O)C2(C)C [MACROCARPAL C]
assay.readout: MIC
unit.name: µg/mL
numeric.result: 1.56
//
compound: CC(=O)CC[C@@H]1[C@H]([C@H]2C(=O)CC[C@]2(C)C(CC(C)C)c2c(O)c(C=O)c(O)c(C=O)c2O)C1(C)C (stereo partly drawn) [EUCALYPTONE]
assay.readout: MIC
unit.name: µg/mL
numeric.result: 3.13

Entry Cc1ccc(C(C)C)c(O)c1 [THYMOL] ; MIC = 200

* * *

system: Streptococcus sobrinus; test: Inhibition of Streptococcus sobrinus glucosyltransferase assessed as blockade of adherent water insoluble glucan synthesis at 100 ug/mL
assay.readout: inhibition (%)
Numbers only, in %.

Worked cases, answers included:
molecule: CC(C)C[C@H](c1c(O)c(C=O)c(O)c(C=O)c1O)[C@@H]1CC[C@@](C)(O)[C@@H]2C[C@H](C(C)(C)O)CC[C@]21C [MACROCARPAL I]
unit.name: %
inhibition: 86.9
//
molecule: CC(C)C[C@@H](c1c(O)c(C=O)c(O)c(C=O)c1O)[C@@]1(C)CC[C@@H]2[C@@H]1[C@H]1[C@@H](CC[C@@]2(C)O)C1(C)C [MACROCARPAL A]
unit.name: %
inhibition: 97.1

Turning now to a further molecule:
Looking up C=C1CC[C@@H]2[C@H]([C@H]3[C@H]1CC[C@]3(C)[C@@H](CC(C)C)c1c(O)c(C=O)c(O)c(C=O)c1O)C2(C)C [MACROCARPAL C] , I see its inhibition listed as 98.9
